TGI overview
# System: T-47D breast
# Experiment Notes: NCI tumour cell line growth inhibition, 48 h

See these solved cases before continuing.
1) C=CCN1C[C@@H](C)N([C@@H](c2ccc(C(=O)N(CC)CC)cc2)c2cccc(OC)c2)C[C@@H]1C : > 100 µM
2) O=c1cc(O)c2c(O)cc(O)cc2o1 : > 100 µM
3) COc1ccc(N(C(=O)NCCO)c2ccccc2)cc1 : > 100 µM
4) CN(C)CCNc1nc2ccccc2c2occc12 : > 100 µM
5) O=S(=O)(NCCO)c1cc[c]([Sb](=[O])([OH])[OH])cc1 : > 100 µM
6) CC(=O)OC1[C@@H](OC(C)=O)CN(OCc2ccccc2)C[C@H]1OC(C)=O (stereo partly specified) : > 100 µM
7) Nc1c2c(nc3ccccc13)CCCc1ccccc1-2 : 37.5 µM
8) O=S(=O)(O)c1ccccc1N=Nc1ccc(N=Nc2c(O)ccc3ccccc23)c(S(=O)(=O)O)c1 : > 100 µM
9) CC(=O)OC(=C(C#N)C#N)c1nccnc1C(C)=O : > 20 µM
10) Cc1[nH]c(=O)nc(N(CCO)/N=C/c2ccc(Cl)cc2)c1C(=O)Nc1ccc(Cl)cc1 : > 100 µM

Req: Fill blank: measured TGI of the compound Cc1ccc(C)c(COCCOCn2c(=O)[nH]c(=O)c3cc(Br)ccc32)c1 is ____.
Resp: > 100 µM

Req: And what about the compound CN(C)/C=C/c1c2c(nc3ccccc13)C(=O)c1ccccc1C2=O ?
Resp: 5.19 µM

====

# System: NCI/ADR-RES ovarian
# Experiment Notes: NCI tumour cell line growth inhibition, 48 h
TGI overview

Req: Fill blank: measured TGI of the compound Cn1c(C(C)(C)OC(=O)Oc2ccccc2)cnc1[N+](=O)[O-] is ____.
Resp: > 100 µM

Req: And what about the compound C/C(=C1\C(=O)C(c2ccccc2)N(c2ccccc2)C1=O)c1ccc(Cl)cc1 (stereo unspecified) ?
Resp: > 100 µM

Req: And what about the compound CC(C)(SCc1ccccc1)C(N)C(=O)O (stereo unspecified) ?
Resp: > 100 µM

Req: And what about the compound COC(=O)c1ccc(C)cc1CC1Cc2c(C)cccc2C1=O (stereo unspecified) ?
Resp: 17.2 µM

Req: And what about the compound COc1cc(Nc2nc3ccccc3nc2C(C)C)cc(OC)c1OC ?
Resp: > 100 µM

Req: And what about the compound Cc1ccc(C)c(COCCOCn2c(=O)[nH]c(=O)c3cc(Br)ccc32)c1 ?
Resp: > 100 µM

====

# Tested on: NCI-H460 lung
# Experiment Notes: NCI tumour cell line growth inhibition, 48 h
Readout Label: TGI

1. CN(C)CCNc1nc2ccccc2c2occc12 : > 100 µM
2. NC(=O)C1N=NSC1NC(=O)c1ccc([N+](=O)[O-])cc1 (centres undefined) : > 100 µM
3. COC(=O)c1ccc(C)cc1CC1Cc2c(C)cccc2C1=O (centres undefined) : > 78.3 µM
4. COc1ccc(-c2nc3cc(C(F)(F)F)ccc3n2CC2CCCN3CCCCC23)cc1 (centres undefined) : 29.2 µM
5. O=c1c2c3c(sc2nc2n1N=C(c1ccc([N+](=O)[O-])cc1)CS2)CCCC3 : > 100 µM
6. CC(=O)NC1=C(Sc2ccc(Cl)cc2)C(=O)c2ccccc2C1=O : 23.2 µM
7. FC(F)(F)c1[nH]ncc1-c1nc2ccc3[nH]ncc3c2c2c1CCCC2 : 9.34 µM
8. Cc1cc2c(C(C)C)c(O)c(O)c(C=Nc3ccccc3)c2c(O)c1-c1c(C)cc2c(C(C)C)c(O)c(O)c(C=Nc3ccccc3)c2c1O : > 100 µM

Req: Fill blank: measured TGI of the molecule Cc1cc(=O)c2ccccc2n1CCCCCCCCCCn1c(C)cc(=O)c2ccccc21 is ____.
Resp: 87.4 µM

Req: And what about the molecule O=C1CCC2(c3ccccc3)Nc3ccc(Cl)cc3N12 (centres undefined) ?
Resp: > 100 µM

====

# Tested on: DLD-1 colon
# Experiment Notes: NCI tumour cell line growth inhibition, 48 h
TGI overview

See these solved cases before continuing.
1. CCN(CC)CCC(=O)/C=C/c1ccc(C)cc1 : 21.9 µM
2. Cc1cc(NS(=O)(=O)c2ccc(Nc3c4ccccc4nc4c(C(=O)Nc5ccc(S(=O)(=O)N=C(N)N)cc5)ccc(Cl)c34)cc2)no1 : > 100 µM
3. Brc1ccc(C2SCc3nc4ccccc4n32)cc1 (stereo not drawn) : 22.3 µM
4. Cc1ccc2c(CC(=O)O)cc(=O)oc2c1 : > 100 µM
5. C/C=C1\CCC2c3[nH]c4ccccc4c3CCN2C1 (stereo not drawn) : > 100 µM

Req: Fill blank: measured TGI of the compound O=C1CCC2(c3ccccc3)Nc3ccc(Cl)cc3N12 (stereo not drawn) is ____.
Resp: > 100 µM

Req: And what about the compound COc1cc2c(cc1OC)[C@@H]([C@H](O)c1ccccc1)NCC2 ?
Resp: > 100 µM

Req: And what about the compound O=C(CC1C(=O)Nc2ccccc2S1(=O)=O)Nc1cccc(Cl)c1 (stereo not drawn) ?
Resp: 32.7 µM

====

GI50 overview
# Test system: HOP-62 NSCLC
# Experiment Notes: NCI tumour cell line growth inhibition, 48 h

See these solved cases before continuing.
1. Oc1ccccc1C=Nc1ccccc1N=Cc1ccccc1O.[Cu+2] : 2.99 µM
2. CC(OC(=O)N(N(CCCl)S(C)(=O)=O)S(C)(=O)=O)c1ccc([N+](=O)[O-])cc1 (stereo not drawn) : 29.4 µM
3. Clc1ccc(N2CCC(N3CCCC3)CC2)cc1-c1nc2ccccc2[nH]1 : 19.8 µM
4. CCOC(=O)c1nc2cc(C(F)(F)F)ccc2[n+]([O-])c1C : > 100 µM
5. COc1ccc(C(=O)OC2C(OC3C(O)COC(O[C@H]4C[C@H]5[C@@H]6CC=C7C[C@@H](O)CC[C@]7(C)[C@H]6CC[C@]5(C)[C@H]4[C@H](C)C(=O)CCC(C)C)C3OC(C)=O)OCC(O)C2O)cc1 (stereo partly drawn) : < 0.003 µM

Req: Param readout = GI50; param system = HOP-62 NSCLC; param query = CC/C=C\C[C@H](O)C/C=C1/C(=O)C=C[C@@H]1C/C=C\CCCC(=O)NC ; response: value
Resp: 2.3 µM

Req: And what about the molecule Cc1cc(O)cc(C)c1/C=C/c1cncc(C(=O)OC(C)(C)C)c1 ?
Resp: > 19.4 µM

Req: And what about the molecule CC12CCC(O)CC1=CCC1C2CCC2(C)C(c3cccnc3)=CCC12 (stereo not drawn) ?
Resp: > 100 µM

====

# Test system: SW-620 colon
# Experiment Notes: NCI tumour cell line growth inhibition, 48 h
Readout Label: TGI

See these solved cases before continuing.
1) C=CCN1C[C@@H](C)N([C@@H](c2ccc(C(=O)N(CC)CC)cc2)c2cccc(OC)c2)C[C@@H]1C : > 100 µM
2) O=C(Nc1cccc(-n2cc(-c3ccncc3)c(-c3ccc(O)c(Cl)c3)n2)c1)c1ccc(Cl)c(Cl)c1 : > 100 µM
3) Nc1[nH]c(=S)c2c(N)n[nH]c2c1C(=O)Nc1ccc(Cl)cc1 : > 100 µM
4) CCN(CC)CC(=O)Nc1ccc2c(c1)C(=O)c1ccc(NC(=O)CN(CC)CC)cc1C2=O : 69.8 µM
5) CC#CCCCC1(C)CCCNC1=S (centres undefined) : > 10 µM
6) CC1(C)N=C(N)N=C(N)N1c1ccc(Cl)c(Cl)c1 : > 100 µM

Req: Fill blank: measured TGI of the compound COc1ccc(-c2nc3cc(C(F)(F)F)ccc3n2CC2CCCN3CCCCC23)cc1 (centres undefined) is ____.
Resp: 28.5 µM

Req: And what about the compound O=C1CCCC2=C1CC1=C(CCCC1=O)N2c1cccc([N+](=O)[O-])c1 ?
Resp: > 100 µM

====

# Tested on: HCT-15 colon
# Experiment Notes: NCI tumour cell line growth inhibition, 48 h
GI50 overview

See these solved cases before continuing.
1. COc1ccc2[nH]c(O)c(/C=c3/ccc4c(c3)N=C(c3ccc(F)cc3)N=4)c2c1 : 5.83 µM
2. COc1ccc(Oc2cc(NCCC(F)(F)F)c3ncc(-c4ccc(C(=O)NC5CC5)c(C)c4)n3n2)c(F)c1F : < 0.01 µM
3. O=C(c1ccccc1)c1nn(-c2ccccc2)c2nc3nc(-c4ccccc4)cc(=O)n3nc12 : 36.3 µM

Req: Param readout = GI50; param system = HCT-15 colon; param query = CC(=O)c1cccc(NC(=O)c2ccc(NC3=C(Cl)C(=O)N(Cc4ccccc4)C3=O)cc2)c1 ; response: value
Resp: 16.8 µM

Req: And what about the compound C[C@]12CCc3sc(-c4cccc(F)c4)nc3C1=CC[C@@H]1[C@@H]2CC[C@]2(C)C(=O)CC[C@@H]12 ?
Resp: 1.56 µM

Req: And what about the compound C[C@]12CC[C@@H]3c4ccc(O)cc4CC[C@H]3[C@@H]1CC[C@@H]2NS(=O)(=O)c1ccc2ccccc2c1 ?
Resp: 2.89 µM

Req: And what about the compound FC(F)(F)c1[nH]ncc1-c1nc2ccc3[nH]ncc3c2c2c1CCCC2 ?
Resp: 2.28 µM

Req: And what about the compound O=C1N[C@H]2[C@H](O)[C@H](O)[C@@H](O)[C@H](O)[C@@H]2c2cc3c(c(O)c21)OCO3 ?
Resp: 0.462 µM

Req: And what about the compound CCOC(=O)c1nc2cc(C(F)(F)F)ccc2[n+]([O-])c1C ?
Resp: > 100 µM
